Tested on: Porcine atria myofibrils (atrial myosin ATPase)
ASSAY METHOD TEXT: Myofibril ATPase assay, porcine atria myofibrils
Type: biochemical
TEST PARAMETERS: porcine atria myofibrils; Y75 value (75% activity relative to no compound)
EXPERIMENTAL ENDPOINT: Atrial EC25 (µM)

* Cc1cc(C#N)nnc1[C@H](C)NC(=O)Cc1c(C)c2c(C)nccc2[nH]c1=O | 100.00
* Cc1nccc2[nH]c(=O)c(CC(=O)N[C@@H](C)c3ccccn3)c(C)c12 (single isomer, unassigned) | 100.00
* Cc1c(CC(=O)N[C@H](CO)c2ccc(C#N)cc2F)c(=O)[nH]c2ccnc(C#N)c12 (single isomer, unassigned) | 0.69
* Cc1c(CC(=O)N[C@H](C)c2ncc(C#N)cc2F)c(=O)[nH]c2ccc(OC(F)(F)F)nc12 | 7.11
* Cc1ccc2[nH]c(=O)c(CC(=O)N[C@@H](C)c3ncc(C#N)cc3F)cc2n1 | 4.39
* CCN(CC)c1nccc2[nH]c(=O)c(CC(=O)N[C@@H](C)c3ccc(F)cc3F)c(C)c12 | 2.39
* Cc1c(CC(=O)N[C@H](CO)c2ccc(F)cc2F)c(=O)[nH]c2ccnc(C(F)(F)F)c12 | 100.00
* C[C@H](NC(=O)Cc1cc2nc(O)ccc2[nH]c1=O)c1ccc(F)cc1F | 100.00

----------
Test system: Rabbit Psoas myofibrils (skeletal myosin ATPase)
ASSAY METHOD TEXT: Myofibril ATPase assay, rabbit psoas (skeletal) myofibrils
Type: biochemical
TEST PARAMETERS: Y75 value (no ‡ mark); rabbit psoas myofibrils
EXPERIMENTAL ENDPOINT: Skeletal EC25 (µM)

- Cc1cc(C#N)nnc1[C@H](C)NC(=O)Cc1c(C)c2c(F)c(F)ccc2[nH]c1=O [compound 1136]: 0.05
- C[C@H](NC(=O)Cc1c(C2CC2)c2c(F)c(F)ccc2[nH]c1=O)c1ccc(C#N)cn1 [compound 26]: 0.21
- Cc1c(CC(=O)N[C@H](C)c2ncc(C#N)cc2F)c(=O)[nH]c2ccc(F)c(F)c12 [compound 41]: 0.07
- Cc1c(CC(=O)N[C@@H](C)c2ccc(C#N)cn2)c(=O)[nH]c2ccc(F)c(C3CC3)c12 [compound 24]: 0.04
- N#Cc1cnc2c(c1)OC[C@@H]2NC(=O)Cc1cc2c(F)c(F)ccc2[nH]c1=O (single isomer, unassigned) [compound 14]: 0.07
- Cc1nc(C#N)cnc1[C@H](C)NC(=O)C(F)(F)c1c(C)c2cc(F)ccc2[nH]c1=O (single isomer, unassigned) [compound 2568]: 0.11
- COc1ccc2[nH]c(=O)c(CC(=O)N[C@@H](C)c3ccc(F)cc3F)cc2c1C#N [Compound 81]: 51.89
- Cc1c(CC(=O)N[C@@H](C)c2ccc(F)cc2F)c(=O)[nH]c2ccc(F)c(Br)c12 [compound 109]: 0.01
- C[C@@H](NC(=O)Cc1cc2c(F)cccc2[nH]c1=O)c1ccc(C#N)cn1 [compound 47]: 0.43
- C[C@H](NC(=O)Cc1c(C(F)F)c2c(F)c(F)ccc2[nH]c1=O)c1ccc(F)cc1F [compound 107]: 0.02
- Cc1c(C(F)(F)C(=O)N[C@H](C)c2ncc(C#N)cn2)c(=O)[nH]c2cccc(C#N)c12 (single isomer, unassigned) [compound 4838]: 0.28

All figures here come from patent US12448369B2.
